Assign excess molar enthalpy to each entry below.
- EXPERIMENTAL DETAILS: excess molar enthalpy (molar enthalpy of mixing); xn = mol fraction of the nth substance listed
- TEST PARAMETERS: 298.15 K; 101 kPa; Liquid; Flow calorimetry; x2 = 0.6
Write the figure, then the unit, nothing else.

Quick check: excess molar enthalpy of CCCC(C)=O [pentan-2-one] + C1CCOCC1 ?
0.0222 kcal/mol

Quick check: excess molar enthalpy of O=C1CCCCC1 [cyclohexanone] + C1CCOCC1 ?
0.0215 kcal/mol

Quick check: excess molar enthalpy of O=C1CCCC1 [cyclopentanone] + C1CCOCC1 ?
0.0371 kcal/mol

Quick check: excess molar enthalpy of CCCCCC(C)=O [2-heptanone] + C1CCOCC1 ?
0.0147 kcal/mol
